# tested-on: T1, IL-18 receptors on HEK-Blue IL-18 reporter cells (UniProt Q13478 19-541; O95256 20-599, limits assumed)
# T1 sequence (looked up) 1: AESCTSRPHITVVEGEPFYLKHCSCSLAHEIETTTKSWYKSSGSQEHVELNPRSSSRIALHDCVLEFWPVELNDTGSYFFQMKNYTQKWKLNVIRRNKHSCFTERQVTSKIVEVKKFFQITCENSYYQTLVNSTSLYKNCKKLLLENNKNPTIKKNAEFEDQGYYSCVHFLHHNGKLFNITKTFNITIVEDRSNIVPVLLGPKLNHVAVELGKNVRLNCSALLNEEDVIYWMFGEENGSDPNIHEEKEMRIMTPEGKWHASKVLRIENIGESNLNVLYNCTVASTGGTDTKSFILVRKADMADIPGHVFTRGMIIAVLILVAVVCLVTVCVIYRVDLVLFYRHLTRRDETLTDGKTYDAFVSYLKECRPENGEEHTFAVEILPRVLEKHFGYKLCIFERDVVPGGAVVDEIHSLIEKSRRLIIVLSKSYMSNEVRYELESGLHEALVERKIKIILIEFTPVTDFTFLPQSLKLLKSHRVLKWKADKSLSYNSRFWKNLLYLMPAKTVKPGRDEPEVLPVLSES
# T1 sequence (looked up) 2: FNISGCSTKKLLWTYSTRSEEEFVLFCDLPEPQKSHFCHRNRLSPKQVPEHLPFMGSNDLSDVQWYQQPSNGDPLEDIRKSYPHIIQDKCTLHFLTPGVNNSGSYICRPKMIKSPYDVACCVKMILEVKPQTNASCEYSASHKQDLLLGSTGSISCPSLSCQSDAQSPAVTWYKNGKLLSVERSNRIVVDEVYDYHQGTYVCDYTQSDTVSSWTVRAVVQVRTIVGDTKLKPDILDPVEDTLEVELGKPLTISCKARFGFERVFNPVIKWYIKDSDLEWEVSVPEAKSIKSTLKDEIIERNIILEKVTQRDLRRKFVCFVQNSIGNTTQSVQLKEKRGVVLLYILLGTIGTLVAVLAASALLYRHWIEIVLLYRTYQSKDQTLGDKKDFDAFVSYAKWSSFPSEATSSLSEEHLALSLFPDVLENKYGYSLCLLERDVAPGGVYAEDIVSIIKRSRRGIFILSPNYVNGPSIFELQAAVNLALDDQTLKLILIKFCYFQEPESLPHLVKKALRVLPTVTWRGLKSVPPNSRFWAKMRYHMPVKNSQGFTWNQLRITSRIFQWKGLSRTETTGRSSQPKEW
# experiment: cell-based or functional assay; note: unit not given here
Hi there, I'd appreciate the recorded Activity, No BP, DF-100000 for every entry that follows.
# answer = number (no unit)

[Q] Look up Activity, No BP, DF-100000 of IL-18 variant G3N, E6S, K53Q, D54W, S55R, N91T, R104T (ligand) YFNKLSSKLSVIRNLNDQVLFIDQGNRPLFEDMTDSDMRDNAPRTIFIISMYQWRQPRGMAVTISVKSEKISTLSSENKIISFKEMNPPDTIKDTKSDIIFFQTSVPGHDNKMQFESSSYEGYFLASEKERDLFKLILKKEDELGDRSIMFTVQNED and report it.
[A] 0.46

[Q] Look up Activity, No BP, DF-100000 of IL-18 variant G3D, E6G, K53G, D54A, T63S, N91Y, R104Q (ligand) YFDKLGSKLSVIRNLNDQVLFIDQGNRPLFEDMTDSDMRDNAPRTIFIISMYGASQPRGMAVSISVKSEKISTLSSENKIISFKEMNPPDYIKDTKSDIIFFQQSVPGHDNKMQFESSSYEGYFLASEKERDLFKLILKKEDELGDRSIMFTVQNED and report it.
[A] 1.36

[Q] Look up Activity, No BP, DF-100000 of IL-18 variant G3P, E6V, K53A, D54W, S55P, T63S, N91L, R104K, Q154R (ligand) YFPKLVSKLSVIRNLNDQVLFIDQGNRPLFEDMTDSDMRDNAPRTIFIISMYAWPQPRGMAVSISVKSEKISTLSSENKIISFKEMNPPDLIKDTKSDIIFFQKSVPGHDNKMQFESSSYEGYFLASEKERDLFKLILKKEDELGDRSIMFTVRNED and report it.
[A] 0.56

[Q] Look up Activity, No BP, DF-100000 of IL-18 variant G3Q, E6N, K53T, D54A, N91K, R104P (ligand) YFQKLNSKLSVIRNLNDQVLFIDQGNRPLFEDMTDSDMRDNAPRTIFIISMYTASQPRGMAVTISVKSEKISTLSSENKIISFKEMNPPDKIKDTKSDIIFFQPSVPGHDNKMQFESSSYEGYFLASEKERDLFKLILKKEDELGDRSIMFTVQNED and report it.
[A] 0.07

[Q] Look up Activity, No BP, DF-100000 of IL-18 variant G3P, E6D, K53T, D54N, T63A, N91T, R104P (ligand) YFPKLDSKLSVIRNLNDQVLFIDQGNRPLFEDMTDSDMRDNAPRTIFIISMYTNSQPRGMAVAISVKSEKISTLSSENKIISFKEMNPPDTIKDTKSDIIFFQPSVPGHDNKMQFESSSYEGYFLASEKERDLFKLILKKEDELGDRSIMFTVQNED and report it.
[A] 0.07

[Q] Look up Activity, No BP, DF-100000 of IL-18 variant G3P, E6S, K53N, D54Y, S55P, T63I, N91K, R104H (ligand) YFPKLSSKLSVIRNLNDQVLFIDQGNRPLFEDMTDSDMRDNAPRTIFIISMYNYPQPRGMAVIISVKSEKISTLSSENKIISFKEMNPPDKIKDTKSDIIFFQHSVPGHDNKMQFESSSYEGYFLASEKERDLFKLILKKEDELGDRSIMFTVQNED and report it.
[A] 0.07

[Q] Look up Activity, No BP, DF-100000 of IL-18 variant G3L, E6N, I22M, T63V, N91T, R104P (ligand) YFLKLNSKLSVIRNLNDQVLFMDQGNRPLFEDMTDSDMRDNAPRTIFIISMYKDSQPRGMAVVISVKSEKISTLSSENKIISFKEMNPPDTIKDTKSDIIFFQPSVPGHDNKMQFESSSYEGYFLASEKERDLFKLILKKEDELGDRSIMFTVQNED and report it.
[A] 0.08
